All figures here come from patent US20190010524A1.

Documented Diacid composition (fraction of total diacids) across a set of molecules
Test system: Candida tropicalis strain (sAA496)
assay-explanation: Fermentation of coconut oil to mixed diacids at different pH
Format: cell-based
conditions-used: pH 4.5; coconut oil 80 g/L; 140 hours
measurement-type: Diacid composition (fraction of total diacids)

| compound | val |
| --- | --- |
| O=C(O)CCCCCCCCC(=O)O | 0.00 |
| O=C(O)CCCCCCC(=O)O | 0.68 |
| O=C(O)CCCCC(=O)O | 0.32 |
| O=C(O)CCCCCCCCCCC(=O)O | 0.00 |
